Test system: carrageenan induced edema
Assay: Anti-inflammatory activity, carrageenan induced edema (paw volume, plethysmometer)
Format: in vivo, mice
Settings: grading in the structure activity discussion
readout name: anti-inflammatory activity (in words)

>>> reported_measurement("COc1ccc(-c2nc(NN)c3c4c(sc3n2)CCCCCC4)cc1 [Compound 2]")
"high"
>>> reported_measurement("COc1ccc(-c2nc3sc4c(c3c3n[nH]c(=O)c(=O)n23)CCCCCC4)cc1 [Compound 7]")
"moderate"
>>> reported_measurement("COc1ccc(-c2nc3sc4c(c3c3nnc(C)n23)CCCCCC4)cc1 [Compound 10]")
"high"
>>> reported_measurement("COc1ccc(-c2nc3sc4c(c3c3nnc(Nc5ccccc5)n23)CCCCCC4)cc1 [Compound 12]")
"moderate"
>>> reported_measurement("COc1ccc(C2=Nc3sc4c(c3C3=NNC(=O)CN23)CCCCCC4)cc1 [Compound 8]")
"moderate"
>>> reported_measurement("COc1ccc(C2=Nc3sc4c(c3C3=NCC(=O)N23)CCCCCC4)cc1 [Compound 4]")
"weak"
>>> reported_measurement("COc1ccc(-c2nc3sc4c(c3c3n[nH]c(=O)n23)CCCCCC4)cc1 [Compound 9]")
"high"
>>> reported_measurement("COc1ccc(-c2nc3sc4c(c3c3nnnn23)CCCCCC4)cc1 [Compound 6]")
"high"
>>> reported_measurement("COc1ccc(-c2nc3sc4c(c3c3nc5ccccc5c(=O)n23)CCCCCC4)cc1 [Compound 5]")
"weak"
>>> reported_measurement("COc1ccc(-c2nc3sc4c(c3c3nnc(CC#N)n23)CCCCCC4)cc1 [Compound 3]")
"high"
>>> reported_measurement("COc1ccc(-c2nc3sc4c(c3c3nnc(-c5ccccc5)n23)CCCCCC4)cc1 [Compound 14]")
"weak"

----------
Test: Acute toxicity (LD50)
Conditions: mouse, in vivo, ip; male adult mice, i.p., mortality after 24 h, graphical method
Threshold 2000 mg/kg. LD50 at 24 h below it: YES. LD50 at 24 h at it or above: NO.

>>> qualitative_label("COc1ccc(-c2nc3sc4c(c3c3n[nH]c(=O)n23)CCCCCC4)cc1 [Compound 9]")
"YES"
>>> qualitative_label("COc1ccc(-c2nc3sc4c(c3c3nnc(CC#N)n23)CCCCCC4)cc1 [Compound 3]")
"NO"
>>> qualitative_label("COc1ccc(-c2nc(NN)c3c4c(sc3n2)CCCCCC4)cc1 [Compound 2]")
"NO"
>>> qualitative_label("COc1ccc2c(c1)c(CC(=O)O)c(C)n2C(=O)c1ccc(Cl)cc1 [Indomethacin, reference compound]")
"YES"
>>> qualitative_label("COc1ccc(-c2nc3sc4c(c3c3nnc(C)n23)CCCCCC4)cc1 [Compound 10]")
"NO"

----------
Known inhibition in vivo at 5 mg/kg of a selection of compounds
System: carrageenan induced edema
Experiment: Anti-inflammatory activity, carrageenan induced edema (paw volume, plethysmometer)
Assay type: in vivo, mice
Conditions: Mus musculus, po, 1 h; dose 5 mg/kg b.m (p.o.); n = 6; read-out: Edema inhibition (Means ± E.M)
From the text: Female albino mice (16–18 g) and Sprague Dawley […] (100 g) obtained from the Theodor Bilharz Research Institute (TBRI, Giza city, Egypt) were used. Approval of the institutional animal ethical committee for the animal studies was obtained from the Office of Environmental Health and Radiation Safety, ACUC Protocol 1096-5. The animals were maintained according to accepted standards of animal care. […]
readout name: inhibition in vivo at 5 mg/kg (%)

>>> reported_measurement("COc1ccc(-c2nc3sc4c(c3c3nnc(CC#N)n23)CCCCCC4)cc1 [Compound 3]")
37.2
>>> reported_measurement("COc1ccc(-c2nc3sc4c(c3c3nnnn23)CCCCCC4)cc1 [Compound 6]")
34.5
>>> reported_measurement("COc1ccc(-c2nc(NN)c3c4c(sc3n2)CCCCCC4)cc1 [Compound 2]")
42.3
>>> reported_measurement("COc1ccc(-c2nc3sc4c(c3c3nc5ccccc5c(=O)n23)CCCCCC4)cc1 [Compound 5]")
11.7
>>> reported_measurement("COc1ccc(-c2nc3sc4c(c3c3nnc(-c5ccccc5)n23)CCCCCC4)cc1 [Compound 14]")
7.3

----------
System: carrageenan induced edema
Assay: Anti-inflammatory activity, carrageenan induced edema (paw volume, plethysmometer)
Assay type: in vivo, mice
Settings: Mus musculus, po, 1 h; dose 5 mg/kg b.m (p.o.); n = 6; read-out: Edema inhibition (Means ± E.M)
readout name: inhibition in vivo at 5 mg/kg

>>> reported_measurement("COc1ccc(-c2nc3sc4c(c3c3nnc(Nc5ccccc5)n23)CCCCCC4)cc1")
"19.4%"
>>> reported_measurement("COc1ccc(C2=Nc3sc4c(c3C3=NNC(=O)CN23)CCCCCC4)cc1")
"21.3%"
>>> reported_measurement("COc1ccc(-c2nc3sc4c(c3c3n[nH]c(=O)n23)CCCCCC4)cc1")
"31.2%"
>>> reported_measurement("COc1ccc(-c2nc3sc4c(c3c3nnc(C)n23)CCCCCC4)cc1")
"39.1%"
>>> reported_measurement("COc1ccc(-c2nc3sc4c(c3c3n[nH]c(=O)c(=O)n23)CCCCCC4)cc1")
"20.8%"
>>> reported_measurement("COc1ccc(C2=Nc3sc4c(c3C3=NCC(=O)N23)CCCCCC4)cc1")
"16.5%"
>>> reported_measurement("COc1ccc2c(c1)c(CC(=O)O)c(C)n2C(=O)c1ccc(Cl)cc1 [Indomethacin, reference compound]")
"44.7%"
